Protocol summary: NFAT Signaling Pathway (AID 444);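 also: carbachol stimulus at about its EC50 of 1 µM final; % is scaled to controls: 0 for no effect and ±100 for the full control effect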
Condition description: Jurkat NFAT-bla M1, carbachol, beta-lactamase ratio, 5 h; at 38 µM (top of the series)
Inconclusive results are not listed.
Readout label: activity change, negative = inhibition (%)

1. CN1CCN(C2=Nc3cc(Cl)ccc3Nc3ccccc32)CC1 :: -49.7
2. COc1ccc2[nH]cc(CCNC(C)=O)c2c1 :: 14.9
3. O=c1c(-c2ccc(O)cc2)coc2cc(O)cc(O)c12 :: -8.04
4. CCC1(c2ccccc2)C(=O)NCNC1=O :: 0.117
5. CN(C)C(=O)C(CCN1CCC(O)(c2ccc(Cl)cc2)CC1)(c1ccccc1)c1ccccc1 :: -13.2
6. Cn1ccc2cc3c(cc21)CCN3C(=O)Nc1cccnc1 :: -1.4
7. NS(=O)(=O)c1cc2c(cc1Cl)NCNS2(=O)=O :: 0.292
